All figures here come from paper PMC7570662.

Each entry below carries its reported % of Activation Compared to Positive Control against Each Subfamily of TRP Channel TRPV4.
- target_entity: human TRPV4 (Homo sapiens)
- Construct: Each full-length human TRPA1, TRPV1, TRPV4, and TRPM8 coding regions were introduced into a pcDNA4/TO vector; expressed in transfected cells; host or cells: T-REx-293 cells (tetracycline-induced, pcDNA4/TO vector)
- Sequence (Q9HBA0 whole entry): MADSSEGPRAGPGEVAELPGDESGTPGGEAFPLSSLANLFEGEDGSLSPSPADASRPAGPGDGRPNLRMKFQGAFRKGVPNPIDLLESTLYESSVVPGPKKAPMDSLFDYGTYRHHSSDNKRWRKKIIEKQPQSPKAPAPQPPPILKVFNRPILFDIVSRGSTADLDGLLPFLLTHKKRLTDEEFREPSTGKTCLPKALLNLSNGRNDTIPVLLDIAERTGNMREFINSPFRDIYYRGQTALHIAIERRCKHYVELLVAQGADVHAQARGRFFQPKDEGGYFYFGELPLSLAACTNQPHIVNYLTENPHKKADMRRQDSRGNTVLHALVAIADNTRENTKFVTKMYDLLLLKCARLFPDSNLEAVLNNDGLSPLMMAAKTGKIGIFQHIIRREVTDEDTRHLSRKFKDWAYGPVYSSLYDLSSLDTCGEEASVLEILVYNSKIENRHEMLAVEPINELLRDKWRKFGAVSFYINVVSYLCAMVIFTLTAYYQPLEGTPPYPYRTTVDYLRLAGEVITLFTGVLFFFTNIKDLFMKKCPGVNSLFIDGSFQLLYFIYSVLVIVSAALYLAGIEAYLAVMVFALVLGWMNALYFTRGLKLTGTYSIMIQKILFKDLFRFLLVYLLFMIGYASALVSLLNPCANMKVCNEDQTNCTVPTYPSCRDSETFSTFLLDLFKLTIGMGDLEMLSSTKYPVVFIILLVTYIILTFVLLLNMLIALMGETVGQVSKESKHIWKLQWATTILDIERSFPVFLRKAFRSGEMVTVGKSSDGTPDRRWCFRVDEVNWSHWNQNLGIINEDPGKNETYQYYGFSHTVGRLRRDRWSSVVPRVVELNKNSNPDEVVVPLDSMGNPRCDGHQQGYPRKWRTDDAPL
- assay_explanation: Ca2+ influx assay in TRPV4-expressing T-REx-293 cells
- Format: cell-based
- measurement_setup: 10 µmol/L test compound; relative to 4 µmol/L GSK1016790A
Supply the numeric figure in %, leaving out any unit text.

Recorded % of Activation Compared to Positive Control against Each Subfamily of TRP Channel TRPV4, per entry:
* O.Oc1cc(O)c2c(c1)O[C@H](c1ccc(O)c(O)c1)[C@@H](O)C2 | 0.3
* C=C1[C@H]2C[C@@H]3[C@H]4N5C[C@@]6(C)[C@H]7[C@@H]5C[C@]3([C@@H]1O)[C@@](O)(C2)[C@]74C[C@@H](OC(=O)c1ccccc1)[C@@H]6O | −0.1
* CCN1C[C@]2(COC)[C@H](O)C[C@H](OC)[C@@]34[C@@H]5C[C@@]6(O)[C@H](OC(=O)c7ccccc7)[C@@H]5[C@@](O)([C@@H]([C@H](OC)[C@H]23)[C@@H]14)[C@@H](O)[C@@H]6OC | 0.0
* O=c1cc(-c2ccc(O)cc2)oc2c([C@@H]3O[C@H](CO)[C@@H](O)[C@H](O)[C@H]3O)c(O)c([C@@H]3O[C@H](CO)[C@@H](O)[C@H](O)[C@H]3O)c(O)c12 | 5.0
* CCC(=O)c1cc2c(cc1OC)OCO2 | 0.9

We now examine a further compound.
Q: Param item = CC(C(O)c1ccccc1)[N+](C)(C)[O-] (stereo not drawn) [Methylephedrine N-oxide] ; retrieve measured % of Activation Compared to Positive Control against Each Subfamily of TRP Channel TRPV4.
Result: 1.8
